test system: Plasmodium falciparum; assay: Antiplasmodial activity against intraerythrocytic Plasmodium falciparum 3D7 infected in human erythrocytes in fresh RPMI-1640 culture medium assessed as parasite growth inhibition after 96 hrs by microscopic analysis; assay type: functional, organism-based; settings: 3D7, 96 h

{"Structure string": "CSCCCNC(=O)CNC(=O)[C@H](O)C(C)(C)CO", "Relational operator": "=", "IC50 [µM]": 38}
{"Structure string": "CSCCCNC(=O)CCCNC(=O)[C@H](O)C(C)(C)CO", "Relational operator": "=", "IC50 [µM]": 7.7}
{"Structure string": "CC(C)(CO)[C@@H](O)C(=O)NCCC(=O)NCc1ccc2c(c1)OCO2", "Relational operator": "=", "IC50 [µM]": 144}
{"Structure string": "CC(C)(CO)[C@@H](O)C(=O)NCC(=O)NCc1ccccc1", "Relational operator": "=", "IC50 [µM]": 122}
{"Structure string": "CC(C)(CO)[C@@H](O)C(=O)NCCCC(=O)NCCc1ccccc1", "Relational operator": "=", "IC50 [µM]": 2.1}
{"Structure string": "COc1cccc(CNC(=O)CNC(=O)[C@H](O)C(C)(C)CO)c1", "Relational operator": ">", "IC50 [µM]": 200}
{"Structure string": "CCCCCNC(=O)CCNC(=O)[C@H](O)C(C)(C)CO", "Relational operator": "=", "IC50 [µM]": 182}
{"Structure string": "CCCNC(=O)CCNC(=O)[C@H](O)C(C)(C)CO", "Relational operator": "=", "IC50 [µM]": 199}
{"Structure string": "CCCNC(=O)CCCNC(=O)[C@H](O)C(C)(C)CO", "Relational operator": "=", "IC50 [µM]": 13}
{"Structure string": "CCSCCNC(=O)CCNC(=O)[C@H](O)C(C)(C)CO", "Relational operator": "=", "IC50 [µM]": 87}
{"Structure string": "CC(C)CCNC(=O)CCCNC(=O)[C@H](O)C(C)(C)CO", "Relational operator": "=", "IC50 [µM]": 8.9}

----------
test: Selectivity index, ratio of IC50 for human Jurkat cells to IC50 for intraerythrocytic Plasmodium falciparum 3D7 infected in human erythrocytes in fresh RPMI-1640 culture medium; type: toxicity, cell-based; details: read-out: Ratio IC50
Hi! Could you tag entries with selectivity ratio below 30 as Met, and those at or above as Not met? Much appreciated.

{"Structure string": "CCCCCCNC(=O)CNC(=O)[C@H](O)C(C)(C)CO", "Assigned label": "Met"}
{"Structure string": "CC(C)(CO)[C@@H](O)C(=O)NCCCC(=O)NCC1CCCCC1", "Assigned label": "Not met"}
{"Structure string": "CCCCCNC(=O)CCCNC(=O)[C@H](O)C(C)(C)CO", "Assigned label": "Not met"}
{"Structure string": "CC(C)(CO)[C@@H](O)C(=O)NCC(=O)NCCc1ccccc1", "Assigned label": "Met"}
{"Structure string": "CC(C)(CO)[C@@H](O)C(=O)NCCCC(=O)NCc1ccc2c(c1)OCO2", "Assigned label": "Met"}
{"Structure string": "CCSCCNC(=O)CCCNC(=O)[C@H](O)C(C)(C)CO", "Assigned label": "Not met"}
{"Structure string": "CC(C)(CO)[C@@H](O)C(=O)NCCCC(=O)NCCc1ccccc1", "Assigned label": "Not met"}

----------
tested on: Plasmodium falciparum; assay: Antiplasmodial activity against intraerythrocytic Plasmodium falciparum 3D7 infected in human erythrocytes in fresh RPMI-1640 culture medium assessed as parasite growth inhibition after 96 hrs by microscopic analysis; type: functional, organism-based; conditions: 3D7, 96 h
Known log10 of IC50 of a selection of compounds
Attribute measured: log10 of IC50 (log10 of the value in µM)

{"Structure string": "CCCCNC(=O)CCCNC(=O)[C@H](O)C(C)(C)CO", "Attribute measured": "log10 of IC50", "Endpoint result": 1.04}
{"Structure string": "COc1ccc(CNC(=O)CNC(=O)[C@H](O)C(C)(C)CO)cc1", "Attribute measured": "log10 of IC50", "Endpoint result": 1.41}
{"Structure string": "CC(C)CNC(=O)CNC(=O)[C@H](O)C(C)(C)CO", "Attribute measured": "log10 of IC50", "Endpoint result": 1.26}
{"Structure string": "CC(C)(CO)[C@@H](O)C(=O)NCCCC(=O)NCc1ccc(OC(F)(F)F)cc1", "Attribute measured": "log10 of IC50", "Endpoint result": 0.80}
{"Structure string": "CC(C)CNC(=O)CCCNC(=O)[C@H](O)C(C)(C)CO", "Attribute measured": "log10 of IC50", "Endpoint result": 1.04}
{"Structure string": "COc1ccc(CNC(=O)CCCNC(=O)[C@H](O)C(C)(C)CO)cc1", "Attribute measured": "log10 of IC50", "Endpoint result": 0.98}
{"Structure string": "CC(C)(CO)[C@@H](O)C(=O)NCC(=O)NCc1ccc(OC(F)(F)F)cc1", "Attribute measured": "log10 of IC50", "Endpoint result": 1.85}
{"Structure string": "CCCCCNC(=O)CCCNC(=O)[C@H](O)C(C)(C)CO", "Attribute measured": "log10 of IC50", "Endpoint result": 0.59}
{"Structure string": "CC(C)(CO)[C@@H](O)C(=O)NCCCC(=O)NCc1ccccc1", "Attribute measured": "log10 of IC50", "Endpoint result": 0.79}
{"Structure string": "CC(C)CCNC(=O)CNC(=O)[C@H](O)C(C)(C)CO", "Attribute measured": "log10 of IC50", "Endpoint result": 1.08}
{"Structure string": "CCSCCNC(=O)CCCNC(=O)[C@H](O)C(C)(C)CO", "Attribute measured": "log10 of IC50", "Endpoint result": 0.30}
{"Structure string": "CC(C)(CO)[C@@H](O)C(=O)NCCC(=O)NCC1CC1", "Attribute measured": "log10 of IC50", "Endpoint result": 2.17}
{"Structure string": "CN(C)c1cccc2c(S(=O)(=O)NCCCCCNC(=O)CNC(=O)[C@H](O)C(C)(C)CO)cccc12", "Attribute measured": "log10 of IC50", "Endpoint result": 2.19}
{"Structure string": "CCCNC(=O)CNC(=O)[C@H](O)C(C)(C)CO", "Attribute measured": "log10 of IC50", "Endpoint result": 1.11}
{"Structure string": "CC(C)(CO)[C@@H](O)C(=O)NCC(=O)NCc1ccc2c(c1)OCO2", "Attribute measured": "log10 of IC50", "Endpoint result": 1.72}
{"Structure string": "CSCCCNC(=O)CCNC(=O)[C@H](O)C(C)(C)CO", "Attribute measured": "log10 of IC50", "Endpoint result": 2.16}
{"Structure string": "COc1cccc(CNC(=O)CCCNC(=O)[C@H](O)C(C)(C)CO)c1", "Attribute measured": "log10 of IC50", "Endpoint result": 1.32}
{"Structure string": "CCCCNC(=O)CNC(=O)[C@H](O)C(C)(C)CO", "Attribute measured": "log10 of IC50", "Endpoint result": 0.72}
{"Structure string": "CCCCCCNC(=O)CCCNC(=O)[C@H](O)C(C)(C)CO", "Attribute measured": "log10 of IC50", "Endpoint result": 0.90}
{"Structure string": "CC(C)(CO)[C@@H](O)C(=O)NCC(=O)NCc1cccc(C(F)(F)F)c1", "Attribute measured": "log10 of IC50", "Endpoint result": 1.95}
{"Structure string": "CCCCCCCNC(=O)CNC(=O)[C@H](O)C(C)(C)CO", "Attribute measured": "log10 of IC50", "Endpoint result": 1.66}
{"Structure string": "CC(C)CNC(=O)CCNC(=O)[C@H](O)C(C)(C)CO", "Attribute measured": "log10 of IC50", "Endpoint result": 2.30}
{"Structure string": "CC(C)(CO)[C@@H](O)C(=O)NCCCC(=O)NCc1ccc2c(c1)OCO2", "Attribute measured": "log10 of IC50", "Endpoint result": 0.38}
{"Structure string": "CC(C)(CO)[C@@H](O)C(=O)NCCC(=O)NCCc1ccccc1", "Attribute measured": "log10 of IC50", "Endpoint result": 1.72}
{"Structure string": "CC(C)(CO)[C@@H](O)C(=O)NCC(=O)NCc1ccc(C(F)(F)F)cc1", "Attribute measured": "log10 of IC50", "Endpoint result": 1.68}
{"Structure string": "CCSCCNC(=O)CNC(=O)[C@H](O)C(C)(C)CO", "Attribute measured": "log10 of IC50", "Endpoint result": 1.00}
{"Structure string": "CCCCCCCNC(=O)CCCNC(=O)[C@H](O)C(C)(C)CO", "Attribute measured": "log10 of IC50", "Endpoint result": 1.04}
